Provide the recorded Ki for the entries that follow.
Residues, ends and D or L forms follow the SMILES beside them. *: point of attachment. Agmatine = N=C(N)NCCCCN*; PhAc = O=C(Cc1ccccc1)*
Give the quantity in µM, number only.

// assay Coagulation factor X (Homo sapiens), entry CC(C)[C@H](NC(=O)[C@H](CCCNC(=N)N)NC(=O)Cc1ccccc1)C(=O)N[C@@H](CCCNC(=N)N)C(=O)NCCCCNC(=N)N (PhAc-Arg-Val-Arg-Agmatine) , Ki value = 83

Log: Coagulation factor X (Homo sapiens), compound `CC(C)[C@H](NC(=O)[C@H](CCCNC(=N)N)NC(=O)Cc1ccccc1)C(=O)N[C@@H](CCCNC(=N)N)C(=O)NCC1CCN(C(=N)N)CC1` , Ki = 123

So the reported Ki for `CC(C)[C@H](NC(=O)[C@H](CCCNC(=N)N)NC(=O)Cc1ccccc1)C(=O)N[C@@H](CCCNC(=N)N)C(=O)NCc1ccc(C(=N)N)cc1` , on Coagulation factor X (Homo sapiens), turned out to be 40
